This collection of values is drawn from PubChem BioAssay (NCI).

system: A549 NSCLC; assay: NCI tumour cell line growth inhibition, 48 h
Entries and their TGI values follow.

molecule | study system | TGI
c1ccc(C(NCC2CCO2)(c2ccccc2)c2ccccc2)cc1 (stereo unspecified) | A549 NSCLC | 30.6 µM
Nc1[nH]nc(Nc2ccc(Cl)cc2)c1P(=O)(c1ccccc1)c1ccccc1 | A549 NSCLC | > 100 µM
CCC(=O)c1c(NOC2OCC(OC(C)=O)C(OC(C)=O)C2OC(C)=O)nc(OC)n(C)c1=O (stereo unspecified) | A549 NSCLC | > 100 µM
O=C(/C=C/c1ccccc1)CSc1ncn[nH]1 | A549 NSCLC | > 100 µM
Nc1ccccc1C#C/C=C\C#Cc1ccc(OCCCNC(=O)c2cc3ccccc3[nH]2)cc1 | A549 NSCLC | 31.3 µM
CC(C)CCC[C@@H](C)[C@H]1CC[C@H]2[C@@H]3CC[C@H]4C[C@@H](CCC=C(c5cc(Cl)c(O)c(C(=O)O)c5)c5cc(Cl)c(O)c(C(=O)O)c5)CC[C@]4(C)[C@H]3CC[C@]12C | A549 NSCLC | > 100 µM
C=CCC1CC(n2cc(C)c(=O)[nH]c2=O)OC1CO[Si](C)(C)C(C)(C)C (stereo unspecified) | A549 NSCLC | 26.8 µM
Cc1nc(N)nc2c1CCC(O)S2 (stereo unspecified) | A549 NSCLC | 78.2 µM
COc1ccc(NC(=O)CC2SC(=Nc3ccccc3C)NC2=O)c([N+](=O)[O-])c1 (stereo unspecified) | A549 NSCLC | > 100 µM
Cc1ccc(NC=O)c(-c2c(N)[nH]c(=S)[nH]c2=O)c1 | A549 NSCLC | > 100 µM
CCCNC(=O)C1C(=O)C(=O)N(CCC)C1=O (stereo unspecified) | A549 NSCLC | > 100 µM
COc1ccc(-c2cs/c(=N\N=C\c3ccc(O)cc3O)n2/N=C/c2ccc(O)cc2O)cc1 | A549 NSCLC | 4.62 µM
CC(=O)OCC1OC(n2cc(F)c(=O)[nH]c2=O)C(NC(=O)OCc2ccccc2)C(OC(C)=O)C1OC(C)=O (stereo unspecified) | A549 NSCLC | > 100 µM
O=c1/c(=C/c2ccccc2[N+](=O)[O-])sc2nc3ccccc3n12 | A549 NSCLC | > 46.4 µM
C=CCn1c(C)nc2ccc(Nc3nc(Nc4ccc(F)cc4)nc4ccccc34)cc21 | A549 NSCLC | 22.2 µM
COc1ccc(-n2[nH]nc(C(N)=O)c2=O)cc1 | A549 NSCLC | > 100 µM
CCOC(=O)c1[nH]c(Br)c(-c2ccc(OC)c(OC)c2)c1Br | A549 NSCLC | 23 µM
CCCC(CCC(N)=O)(CCC(N)=O)[N+](=O)[O-] | A549 NSCLC | > 100 µM
S=c1snc2n1CCN2 | A549 NSCLC | > 100 µM
COc1ccc2nc(-c3ccccc3)cc(OCC(=O)O)c2c1 | A549 NSCLC | > 100 µM
CCOC(=O)C(=O)Nc1ccccc1C | A549 NSCLC | > 100 µM

* * *

system: RPMI-8226 leukemia; assay: NCI tumour cell line growth inhibition, 48 h; in the data active = GI50 below about 0.43 µM; inactive = the rest
Labels: class 1 = active, class 0 = inactive

compound | category label
CCOC(=O)Nc1nc2ccc(OC)cc2s1 | class 0
CC(C)c1c(-c2ccccc2)nc2c(C#N)c[nH]n2c1=O | class 0
COc1ccc(/C=C/C(=O)/C=C/c2cc3ccccc3[nH]c2=O)cc1 | class 0
Cn1c(-c2c(N)n(Nc3cccc(Cl)c3)c3nc(C#N)c(C#N)nc23)nc2ccccc21 | class 0
COc1ccc2cc(/C=C/C(=O)c3ccc(Cl)cc3Cl)ccc2c1 | class 0
O=C(/C=C/c1ccccc1)C(Br)C(Br)c1ccccc1 (configuration not stated) | class 1
CS(=O)(=O)CCNCc1cc(-c2cc3c(Nc4ccc(OCc5cccc(F)c5)c(Cl)c4)ncnc3s2)cs1 | class 0
COc1cc2ncn(-c3cc(OCc4ccccc4C(F)(F)F)c(C(=O)N(C)C)s3)c2cc1OC | class 0
COc1cccc(/C(C#N)=C/c2nc3c(N4CCOCC4)nc(Cl)nc3n2C)c1 | class 1
Cc1ncc(C(=O)Nc2ccc(CN3CCN(C)CC3)c(C(F)(F)F)c2)cc1C#Cc1cnc2cccnn12 | class 1
COc1cc(F)c(F)c(Nc2ccc(I)cc2F)c1NS(=O)(=O)C1(C[C@H](O)CO)CC1 | class 0
COc1cc(OC)c(C(=O)/C=C/c2cc3c(cc2OCc2ccccc2)OC(C)(C)CC3)cc1CC=C(C)C | class 0
Cc1nc(-c2ccccc2)n2nc(NCCCN3CCOCC3)ncc12 | class 0
COc1ccc(NC(=O)CSC2=C(Nc3cccc(Br)c3)C(=O)N(Cc3ccccc3)C2=O)cc1Cl | class 0
CC[C@H](Nc1ncnc2nc[nH]c12)c1nc2cccc(F)c2c(=O)n1-c1ccccc1 | class 0
O=C1/C(=C/c2cccc(Br)c2)COc2ccc(O)cc21 | class 1
S=c1snc2n1CCN2 | class 0
